Biological target: E3 ubiquitin-protein ligase Mdm2 (Homo sapiens)
Sequence (Q00987 whole entry, looked up): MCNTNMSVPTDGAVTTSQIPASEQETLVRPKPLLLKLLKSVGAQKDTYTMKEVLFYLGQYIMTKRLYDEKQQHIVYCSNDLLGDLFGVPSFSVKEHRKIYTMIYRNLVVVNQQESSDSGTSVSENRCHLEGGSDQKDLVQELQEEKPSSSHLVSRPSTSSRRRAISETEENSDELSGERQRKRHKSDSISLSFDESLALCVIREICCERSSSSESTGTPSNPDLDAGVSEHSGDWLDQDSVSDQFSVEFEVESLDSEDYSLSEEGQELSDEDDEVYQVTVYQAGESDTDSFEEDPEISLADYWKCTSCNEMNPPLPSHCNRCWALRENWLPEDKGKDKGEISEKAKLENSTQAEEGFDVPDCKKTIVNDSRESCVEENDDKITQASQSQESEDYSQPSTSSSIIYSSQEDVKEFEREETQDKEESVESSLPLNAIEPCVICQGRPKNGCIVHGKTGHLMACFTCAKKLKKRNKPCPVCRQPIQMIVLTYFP
Assay: Inhibition of MDM2-p53 interaction (unknown origin) by ELISA
measuredQuantity: inhibition

| structureNotation | targetEntity | inhibition |
| --- | --- | --- |
| CC1(C)OC(=O)C(Cc2cc(-c3ccccc3)n(-c3ccc(Br)cc3)c2-c2ccccc2)C(=O)O1 | E3 ubiquitin-protein ligase Mdm2 (Homo sapiens) | Dose-dependent effect |
| CCN1C(=O)C(=Cc2cc(-c3ccccc3)n(-c3ccc(Br)cc3)c2-c2ccccc2)C(=O)N(CC)C1=S | E3 ubiquitin-protein ligase Mdm2 (Homo sapiens) | Dose-dependent effect |
| COc1ccc(-n2c(-c3ccccc3)cc(C=C3C(=O)NC(=O)NC3=O)c2-c2ccccc2)cc1 | E3 ubiquitin-protein ligase Mdm2 (Homo sapiens) | Dose-dependent effect |
| Cc1ccc(-n2c(C)cc(/C=C3\C(=O)NC(=S)N(c4ccccc4)C3=O)c2C)cc1 | E3 ubiquitin-protein ligase Mdm2 (Homo sapiens) | Dose-dependent effect |

// moving on: another record for inhibition
Ask: Entry under review: CCOC(=O)c1ccc(-n2c(-c3ccccc3)cc(C=C3C(=O)NC(=S)NC3=O)c2-c2ccccc2)cc1 . Reported inhibition?
Reply: Dose-dependent effect

----------
Target: UniProt:Q00987
Test: Inhibition of MDM2-p53 interaction (unknown origin) by ELISA

| structureNotation | inhibition |
| --- | --- |
| O=C1NC(=S)N(c2cccc(Cl)c2)C(=O)/C1=C/c1cc(-c2ccccc2)n(-c2ccc(Cl)cc2)c1-c1ccccc1 | Dose-dependent effect |
| N#Cc1ccc(-n2c(-c3ccccc3)cc(C=C3C(=O)NC(=S)NC3=O)c2-c2ccccc2)cc1 | Dose-dependent effect |
| Cc1ccc(N2C(=O)/C(=C\c3cc(-c4ccccc4)n(-c4ccc(Cl)cc4)c3-c3ccccc3)C(=O)N(c3ccccc3)C2=S)cc1C | Dose-dependent effect |
| O=C(NCCO)C(=Cc1cc(-c2ccccc2)n(-c2ccc(Cl)cc2)c1-c1ccccc1)C(=O)NCCO | Dose-dependent effect |
